# ASSAY PROTOCOL: Permeation of extract compounds across Caco-2 monolayer (Papp)
# Type: in vitro ADME, human
# ASSAY SETUP: human, Caco-2, apical sample: extract (0.240 mg/mL), Caco-2, 6 h; read-out: Papp
RECORDED METRIC: Papp at 6 h, 0.24 mg/mL (×10⁻⁶ cm/s)
Numbers only, in ×10⁻⁶ cm/s.

The measured Papp at 6 h, 0.24 mg/mL associated with O=C(/C=C/c1ccc(O)c(O)c1)O[C@@H]1C[C@](O)(C(=O)O)C[C@@H](O)[C@H]1O [Chlorogenic Acid (3), Chlorogenic Acid] reads 6.5

---

# ASSAY PROTOCOL: Permeation of extract compounds across Caco-2 monolayer (Papp)
# Assay type: in vitro ADME, human
# ASSAY SETUP: human, Caco-2, Permeability class (from Papp)
RECORDED METRIC: Papp at 6 h, 0.24 mg/mL

The measured Papp at 6 h, 0.24 mg/mL associated with Oc1cc(O)c2c(c1)O[C@H](c1ccc(O)c(O)c1)[C@H](O)C2 [Epicatechin (15), (−)-Epicatechin] reads > 10 ×10⁻⁶ cm/s

---

# ASSAY PROTOCOL: Permeation of extract compounds across Caco-2 monolayer (Papp)
# Assay type: in vitro ADME, human
# ASSAY SETUP: human, Caco-2, apical sample: extract, Caco-2; read-out: Permeability class (from Papp)
RECORDED METRIC: Papp at 6 h, 0.24 mg/mL

The measured Papp at 6 h, 0.24 mg/mL associated with O=C(/C=C/c1ccc(O)c(O)c1)O[C@@H]1C[C@](O)(C(=O)O)C[C@@H](O)[C@H]1O reads 1 to 10 ×10⁻⁶ cm/s
